# Protocol details: Half life in Sprague-Dawley rat at 10 mg/kg, po measured for 36 hrs by MRM analysis
# Format: ADME, organism-based
# Condition context: in vivo
Readout: half-life (h)

1) Cc1cnc(Nc2ccc(S(N)(=O)=O)cc2)nc1Nc1nccs1: 4

###

# Protocol details: Oral bioavailability in Sprague-Dawley rat at 10 mg/kg measured for 36 hrs by MRM analysis
# Assay type: ADME, organism-based
# Condition context: in vivo
Readout: bioavailability (%)

1) Cc1cnc(Nc2ccc(S(N)(=O)=O)cc2)nc1Nc1nccs1: 86.7

###

# Protocol details: Tmax in Sprague-Dawley rat at 2 mg/kg, iv measured for 36 hrs by MRM analysis
# Type: ADME, organism-based
# Condition context: in vivo
Readout: Tmax

1. Cc1cnc(Nc2ccc(S(N)(=O)=O)cc2)nc1Nc1nccs1: 12 min

meta.source: ChEMBL document CHEMBL6096697
